system: GSPT1 protein (Homo sapiens)
Construct: The whole cell lysate was prepared using a RIPA lysis buffer; endogenous in cells; host or cells: NB-4 cells
Sequence (P15170 whole entry): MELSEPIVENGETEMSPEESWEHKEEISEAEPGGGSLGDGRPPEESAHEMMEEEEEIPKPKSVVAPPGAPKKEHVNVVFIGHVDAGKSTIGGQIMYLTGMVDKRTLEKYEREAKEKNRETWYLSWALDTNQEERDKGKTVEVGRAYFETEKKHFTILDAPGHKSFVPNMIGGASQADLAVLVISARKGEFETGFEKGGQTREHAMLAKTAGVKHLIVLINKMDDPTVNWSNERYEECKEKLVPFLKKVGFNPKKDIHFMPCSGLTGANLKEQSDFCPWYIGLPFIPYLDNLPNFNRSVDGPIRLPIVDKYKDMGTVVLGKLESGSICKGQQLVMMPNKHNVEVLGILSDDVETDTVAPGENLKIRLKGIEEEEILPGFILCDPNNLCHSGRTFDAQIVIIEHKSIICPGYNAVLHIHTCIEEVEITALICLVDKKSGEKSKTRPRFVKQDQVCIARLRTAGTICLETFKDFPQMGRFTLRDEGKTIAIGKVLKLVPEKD
protocol: Degradation of GSPT1 protein in NB-4 cells (Western blot)
Type: cell-based
condition_context: NB-4 cells, compound 1 μM, 6 h; read-out: GSPT1 degradation
metric: inhibition at 1 µM

{"compound": "O=C1CCC(N2Cc3c(ccc(CNC(=O)c4ccc(C(=O)c5ccccc5)cc4)c3F)C2=O)C(=O)N1 (stereo not drawn)", "inhibition at 1 µM": "> 80%"}
{"compound": "O=C1CCC(N2Cc3c(ccc(CNC(=O)C4(c5ccc(Br)cc5F)CC4)c3F)C2=O)C(=O)N1 (stereo not drawn)", "inhibition at 1 µM": "< 25%"}
{"compound": "CC(C)(C)OC(=O)NCc1ccc2c(c1F)CN(C1CCC(=O)NC1=O)C2=O (stereo not drawn)", "inhibition at 1 µM": "< 25%"}
{"compound": "O=C1CCC(N2Cc3cc(CNC(=O)c4ccc(Cl)cc4)c(Cl)cc3C2=O)C(=O)N1 (stereo not drawn)", "inhibition at 1 µM": "< 25%"}
{"compound": "CCC#CC(=O)NCc1cc2c(cc1F)C(=O)N(C1CCC(=O)NC1=O)C2 (stereo not drawn)", "inhibition at 1 µM": "< 25%"}

Entry CCN1C(=O)CCC(N2Cc3c(ccc(CNC(=O)c4ccc(Cl)cc4)c3F)C2=O)C1=O (stereo not drawn) , GSPT1 protein (Homo sapiens) data, inhibition at 1 µM value: < 25%

Entry O=C1CCC(N2Cc3c(ccc(CNC(=O)c4cc5cc(Cl)ccc5o4)c3Cl)C2=O)C(=O)N1 (stereo not drawn) , GSPT1 protein (Homo sapiens) data, inhibition at 1 µM value: 50 to 80%

Entry O=C(CCCc1ccc(I)cc1)NCc1ccc2c(c1F)CN(C1CCC(=O)NC1=O)C2=O (stereo not drawn) , GSPT1 protein (Homo sapiens) data, inhibition at 1 µM value: > 80%

Entry O=C(Cc1cc2ccccc2s1)NCc1cc(F)cc2c1CN(C1CCC(=O)NC1=O)C2=O (stereo not drawn) , GSPT1 protein (Homo sapiens) data, inhibition at 1 µM value: 50 to 80%

Entry O=C1CCC(N2Cc3c(ccc(CNC(=O)c4ccc(F)cc4)c3Cl)C2=O)C(=O)N1 (stereo not drawn) , GSPT1 protein (Homo sapiens) data, inhibition at 1 µM value: < 25%

Entry CCCCOc1ccc(CC(=O)NCc2ccc3c(c2F)CN(C2CCC(=O)NC2=O)C3=O)cc1 (stereo not drawn) , GSPT1 protein (Homo sapiens) data, inhibition at 1 µM value: > 80%

Entry NCc1ccc2c(c1Cl)CN(C1CCC(=O)NC1=O)C2=O (stereo not drawn) , GSPT1 protein (Homo sapiens) data, inhibition at 1 µM value: < 25%
